Tested on: 636577-100-R-J1-PDC complex spheroid viability;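 note: viability read after seven days of drug exposure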
Experiment: Anticancer human tumor 636577-100-R-J1-PDC patient-derived endometrial adenocarcinoma cell line growth inhibition [GQUAD]
Details: curve of first compound; second compound 0.1 µM
Assignment: determine reported pIC50 for the given compounds.
Keep in mind that pIC50 stands for -log10 of concentration in molar terms.

Request: Would you kindly share the measured pIC50 for O=C(NO)c1cnc(N2CCN(S(=O)(=O)c3ccc4ccccc4c3)CC2)nc1 + Cc1[nH]c2ccc(F)cc2c1-c1nc2c3cccnc3c3ncccc3c2[nH]1 ?
Response: 7.24

Request: Would you kindly share the measured pIC50 for Cc1[nH]c2ccccc2c1CCNCc1ccc(/C=C/C(=O)NO)cc1 + CN(C)c1ccc(Nc2c3ccc(NC(=O)CCN4CCCC4)cc3nc3cc(NC(=O)CCN4CCCC4)ccc23)cc1 ?
Response: 8.34
